Sourced from patent US8148391B2

pIC50 reference
Target: c-Met (cytoplasmic domain) (Homo sapiens)
Construct: 10 ng/mL c-Met (cytoplasmic domain, Invitrogen Corporation #PV3143); purchased Invitrogen Corporation PV3143
Sequence (P08581 956-1390 limits assumed): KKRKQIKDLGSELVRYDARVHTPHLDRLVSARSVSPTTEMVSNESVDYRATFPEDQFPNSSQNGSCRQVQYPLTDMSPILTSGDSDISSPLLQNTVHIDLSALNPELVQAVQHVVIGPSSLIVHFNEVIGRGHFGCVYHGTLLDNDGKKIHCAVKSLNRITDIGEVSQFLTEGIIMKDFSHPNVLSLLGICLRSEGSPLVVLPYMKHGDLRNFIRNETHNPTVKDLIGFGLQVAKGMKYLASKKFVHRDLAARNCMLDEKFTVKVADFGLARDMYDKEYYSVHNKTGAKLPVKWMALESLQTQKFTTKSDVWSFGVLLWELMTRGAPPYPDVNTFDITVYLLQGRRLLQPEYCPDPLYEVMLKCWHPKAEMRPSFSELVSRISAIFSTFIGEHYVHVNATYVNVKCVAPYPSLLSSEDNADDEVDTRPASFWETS
Assay: c-Met Kinase Assay (same methods as for ALK, with modifications)
Format: biochemical
Settings: c-Met kinase inhibition, 1 μM ATP; read-out: cMet Activity
pIC50: −log10 of the molar value.
measurement_name: pIC50

>>> result("CCN1CCCC(C)(C)c2ccc(Nc3ncc(Cl)c(Nc4c(F)cccc4C(=O)NC)n3)cc21 [Example 1632]")
"6.00 to 7.00"
>>> result("COCCN1CC(=O)Nc2cc(Nc3ncc(Cl)c(N[C@@H]4CCCC[C@H]4NS(C)(=O)=O)n3)c(OC)cc2C1 [Example 1664]")
"< 5.00"
>>> result("CNC(=O)c1ccccc1Nc1nc(Nc2ccc3c(c2)N(C(=O)CN2CCCC2)CCCO3)ncc1Cl [Example 1706]")
"6.00 to 7.00"
>>> result("COCCN1CCc2ccc(Nc3ncc(Cl)c(Nc4ccccc4S(=O)(=O)N(C)C)n3)cc2CC1 [Example 1686]")
"6.00 to 7.00"
>>> result("CNC(=O)c1ccc(C(F)(F)F)cc1Nc1nc(Nc2ccc3c(c2)CCOC(=O)N3C)ncc1Cl [Example 1754]")
"6.00 to 7.00"
>>> result("COc1cc2c(cc1Nc1ncc(Cl)c(N[C@@H]3CCCC[C@H]3NS(C)(=O)=O)n1)NC(=O)CN(C(=O)C(F)(F)F)C2(C)C [Example 1463]")
"< 5.00"
>>> result("COc1ccc2c(c1Nc1ncc(Cl)c(N[C@@H]3CCCC[C@H]3NS(C)(=O)=O)n1)CN(Cc1ccccc1)CC(=O)N2 [Example 1654]")
"< 5.00"
>>> result("COc1cc2c(cc1Nc1ncc(Cl)c(Nc3ccccc3S(=O)(=O)N3CC[C@H](O)C3)n1)CCN(C[C@H](C)O)CC2 [Example 1555]")
"6.00 to 7.00"
>>> result("CCN1CCCOc2ccc(Nc3ncc(Cl)c(Nc4ccsc4C(=O)NC)n3)cc21 [Example 1698]")
"6.00 to 7.00"
>>> result("CNC(=O)c1noc(C)c1Nc1nc(Nc2ccc3c(c2)CCOC(=O)N3C)ncc1Cl [Example 1775]")
"5.00 to 6.00"
>>> result("CNC(=O)c1cc(F)ccc1Nc1nc(Nc2ccc3c(c2)-c2nccn2CCC3)ncc1Cl [Example 1847]")
"6.00 to 7.00"
>>> result("CC(C)N1CCCC(C)(C)c2ccc(Nc3ncc(Cl)c(N[C@H]4[C@@H](C(N)=O)[C@@H]5C=C[C@H]4C5)n3)cc21 [Example 1628]")
"< 5.00"
>>> result("CNC(=O)c1cccc(F)c1Nc1nc(Nc2ccc3c(c2)N(CCN(C)C)CCCC3(C)C)ncc1Cl [Example 1638]")
"> 7.00"
>>> result("Cc1nnc(-c2cccc(F)c2Nc2nc(Nc3ccc4c(c3)CCOC(=O)N4C)ncc2Cl)o1 [Example 1787]")
"6.00 to 7.00"
>>> result("COCCN1CCc2cc(Nc3ncc(Cl)c(N[C@@H]4CCCC[C@H]4N(C)S(C)(=O)=O)n3)c(OC)cc2CC1 [Example 1676]")
"< 5.00"
>>> result("COCCN1CCc2ccc(Nc3ncc(Cl)c(Nc4ccccc4OCCN4CCOCC4)n3)cc2CC1 [Example 1466]")
"< 5.00"
>>> result("COc1cc2c(cc1Nc1ncc(Cl)c(N[C@H]3[C@@H](C(N)=O)[C@@H]4C=C[C@H]3C4)n1)CCN(C[C@H](O)C(F)(F)F)CC2 [Example 1673]")
"< 5.00"
>>> result("CNC(=O)c1cc(F)cc(Cl)c1Nc1nc(Nc2ccc3c(c2)CCOC(=O)N3C)ncc1Cl [Example 1758]")
"> 7.00"
>>> result("CNC(=O)c1ncccc1Nc1nc(Nc2ccc3c(c2)CC(=O)N(C)CC3)ncc1Cl [Example 1820]")
"5.00 to 6.00"
>>> result("CC(C)[C@H](Nc1nc(Nc2ccc3c(c2)CC(=O)N(C)CC3)ncc1Cl)C(N)=O [Example 1823]")
"< 5.00"
>>> result("CCN1CCN(CC(=O)OCCOC)C(=O)c2ccc(Nc3ncc(Cl)c(Nc4ccccc4C(=O)NC)n3)cc21 [Example 1459]")
"> 7.00"
>>> result("COCCN1C(=O)CCC(C)(C)c2ccc(Nc3ncc(Cl)c(Nc4c(F)cccc4OCC#N)n3)cc21 [Example 1521]")
"> 7.00"
>>> result("CC(C)S(=O)(=O)c1cccc(F)c1Nc1nc(Nc2ccc3c(c2)-n2ccnc2CCC3)ncc1Cl [Example 1842]")
"> 7.00"
>>> result("CNC(=O)c1cccc(F)c1Nc1nc(Nc2ccc3c(c2)N(CCOC)C(=O)CCC3)ncc1Br [Example 1473]")
"> 7.00"
>>> result("CCN1C(=O)CN(CCO)Cc2ccc(Nc3ncc(Cl)c(Nc4c(F)cccc4C(=O)NC)n3)cc21 [Example 1873]")
"> 7.00"
>>> result("COCCN1CCc2ccc(Nc3ncc(Cl)c(N[C@H]4CCC[C@H]4NS(C)(=O)=O)n3)cc2CC1 [Example 1501]")
"5.00 to 6.00"
>>> result("COc1cc2c(cc1Nc1ncc(Cl)c(Nc3ccccc3S(=O)(=O)N3CCCC3)n1)NC(=O)CN(CC1CC1)C2 [Example 1668]")
"5.00 to 6.00"
>>> result("COc1cc2c(cc1Nc1ncc(Cl)c(Nc3ccccc3S(=O)(=O)N(C)C)n1)N(CC(=O)N(C)C)C(=O)CN(CC(=O)N(C)C)C2 [Example 1656]")
"< 5.00"
>>> result("O=C1Cc2ccc(Nc3ncc(Cl)c(Nc4ccccc4-n4cccn4)n3)cc2CCN1 [Example 1813]")
"> 7.00"

----------
Target: baculovirus-expressed ALK (Homo sapiens, UniProt Q9UM73)
Construct: host or cells: baculovirus expression system
Sequence (Q9UM73 19-1620): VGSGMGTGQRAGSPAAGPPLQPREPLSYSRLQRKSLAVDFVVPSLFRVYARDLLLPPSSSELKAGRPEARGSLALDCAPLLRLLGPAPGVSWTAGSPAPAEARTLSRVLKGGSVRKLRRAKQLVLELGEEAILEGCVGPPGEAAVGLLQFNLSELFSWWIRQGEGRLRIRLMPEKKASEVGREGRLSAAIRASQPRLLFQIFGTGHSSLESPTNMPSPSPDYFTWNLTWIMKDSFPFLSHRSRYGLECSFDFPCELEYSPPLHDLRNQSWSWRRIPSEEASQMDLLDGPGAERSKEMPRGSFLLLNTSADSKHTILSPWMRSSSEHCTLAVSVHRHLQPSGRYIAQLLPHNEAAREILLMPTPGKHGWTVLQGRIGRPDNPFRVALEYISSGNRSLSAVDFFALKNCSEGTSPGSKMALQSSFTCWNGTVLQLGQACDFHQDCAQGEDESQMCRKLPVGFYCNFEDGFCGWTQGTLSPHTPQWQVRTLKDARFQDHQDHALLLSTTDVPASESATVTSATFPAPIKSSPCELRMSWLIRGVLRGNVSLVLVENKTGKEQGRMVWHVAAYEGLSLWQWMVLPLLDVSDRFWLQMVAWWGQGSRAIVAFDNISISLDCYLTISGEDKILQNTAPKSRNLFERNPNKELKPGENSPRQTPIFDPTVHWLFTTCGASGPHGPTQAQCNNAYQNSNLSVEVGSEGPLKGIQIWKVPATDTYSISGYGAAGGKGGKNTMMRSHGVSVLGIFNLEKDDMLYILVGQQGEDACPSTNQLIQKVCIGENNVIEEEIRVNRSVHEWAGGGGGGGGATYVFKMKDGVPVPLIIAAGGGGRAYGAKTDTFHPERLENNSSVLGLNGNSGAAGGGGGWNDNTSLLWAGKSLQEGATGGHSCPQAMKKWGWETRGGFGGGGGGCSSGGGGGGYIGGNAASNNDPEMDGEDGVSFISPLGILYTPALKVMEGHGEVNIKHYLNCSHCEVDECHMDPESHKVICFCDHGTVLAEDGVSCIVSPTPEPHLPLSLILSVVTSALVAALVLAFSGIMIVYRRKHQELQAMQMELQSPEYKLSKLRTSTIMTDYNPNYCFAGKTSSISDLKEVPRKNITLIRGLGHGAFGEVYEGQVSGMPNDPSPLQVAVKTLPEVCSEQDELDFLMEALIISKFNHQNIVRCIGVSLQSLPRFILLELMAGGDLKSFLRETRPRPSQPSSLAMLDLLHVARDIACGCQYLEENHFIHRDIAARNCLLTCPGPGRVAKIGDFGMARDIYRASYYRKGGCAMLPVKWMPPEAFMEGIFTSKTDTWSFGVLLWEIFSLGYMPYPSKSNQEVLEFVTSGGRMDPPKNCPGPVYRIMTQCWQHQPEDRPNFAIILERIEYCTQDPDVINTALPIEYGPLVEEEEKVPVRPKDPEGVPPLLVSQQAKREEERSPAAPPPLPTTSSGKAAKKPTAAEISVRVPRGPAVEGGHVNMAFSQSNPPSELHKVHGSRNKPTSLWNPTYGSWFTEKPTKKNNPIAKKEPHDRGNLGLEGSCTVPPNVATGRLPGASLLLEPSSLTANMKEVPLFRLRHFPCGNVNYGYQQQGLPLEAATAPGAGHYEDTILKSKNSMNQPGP
Assay: ALK Kinase Assay (ELISA-type, time-resolved fluorescence)
Assay type: biochemical
Conditions: 1 μM ATP (Km level); read-out: ALK Activity (ALK Kinase Inhibition, IC50)
measurement_name: IC50

>>> result("CCN1CC(=O)N(C)c2cc(Nc3ncc(Cl)c(Nc4ccc(OC)c(CNCCO)c4)n3)c(OC)cc2C1")
"100 to 1000 nM"
>>> result("COCCN1CCc2ccc(Nc3ncc(Cl)c(Nc4c(F)cccc4OCC#N)n3)cc2CC1")
"< 100 nM"
>>> result("CNC(=O)CN1CCc2cc(Nc3ncc(F)c(Nc4ccc(N5CCOCC5)cc4OC)n3)c(OC)cc2CC1")
"< 100 nM"
>>> result("Cc1cccnc1-c1ccccc1Nc1nc(Nc2ccc3c(c2)C(C)(C)CCC(=O)N3)ncc1Cl")
"< 100 nM"
>>> result("COc1ccc(Nc2ncc(Cl)c(Nc3ccccc3S(=O)(=O)N(C)C)n2)c2c1CCCC(N1CCOCC1)C2 (centres unmarked)")
"1000 to 10000 nM"
>>> result("COc1cc2c(cc1Nc1ncc(C(F)(F)F)c(N[C@H]3[C@@H](C(N)=O)[C@@H]4C=C[C@H]3C4)n1)CCN(CC(=O)N(C)C)CC2")
"< 100 nM"
>>> result("CNC(=O)c1ccccc1Nc1nc(Nc2ccc3c(c2OC)CCC(N2CCOCC2)CC3)ncc1Cl (racemic)")
"< 100 nM"
>>> result("CNC(=O)c1cc(OC)ccc1Nc1nc(Nc2ccc3c(c2)C(C)(C)CCC(=O)N3)ncc1Cl")
"< 100 nM"
>>> result("CCN1CCc2cc(Nc3ncc(Cl)c(N[C@H]4[C@@H](C(N)=O)[C@@H]5C=C[C@H]4C5)n3)c(OC)cc2CC1")
"< 100 nM"
>>> result("COc1c(Nc2ncc(Cl)c(N[C@H]3[C@@H](C(N)=O)[C@@H]4C=C[C@H]3C4)n2)ccc2c1CCC(NCCO)CC2 (single isomer, unassigned) [Example 697]")
"< 100 nM"
>>> result("COc1cc2c(cc1Nc1ncc(Cl)c(Nc3ccc(Cl)cc3S(=O)(=O)N(C)C)n1)CCN(CC(=O)N1CCN(C)CC1)CC2")
"< 100 nM"
>>> result("COc1cc2c(cc1Nc1ncc(Cl)c(Nc3ccc(N4CCN(C)CC4)cc3OC)n1)CCN(CC(N)=O)CC2")
"< 100 nM"
>>> result("CCN1CCc2cc(Nc3ncc(Cl)c(Nc4ccc(N5CCN(C)CC5)cc4OC)n3)c(OC)cc2CC1=O")
"< 100 nM"
>>> result("COc1cc2c(cc1Nc1ncc(Cl)c(Nc3ccc(N4CCOCC4)cc3OC)n1)CCN(CC(C)(F)F)CC2")
"100 to 1000 nM"
>>> result("COCCNC1CCCc2c(ccc(Nc3ncc(Cl)c(N[C@H]4[C@@H](C(N)=O)[C@@H]5C=C[C@H]4C5)n3)c2OC)C1 (some centres unmarked)")
"< 100 nM"
>>> result("COc1cc2c(cc1Nc1ncc(Cl)c(Nc3ccc(C)cc3S(=O)(=O)N(C)C)n1)CCN(CC(=O)N(C)C)CC2")
"< 100 nM"
>>> result("NC(=O)[C@@H]1[C@H](Nc2nc(Nc3ccc4c(c3)CCC(N3CCOCC3)CC4)ncc2C(F)(F)F)[C@H]2C=C[C@@H]1C2 (some centres unmarked)")
"< 100 nM"
>>> result("COc1cc2c(cc1Nc1ncc(Cl)c(Nc3ccccc3-c3nccn3C)n1)CCN(CC(=O)N(C)C)CC2")
"< 100 nM"
>>> result("COc1c(Nc2ncc(Cl)c(N[C@H]3[C@@H](C(N)=O)[C@@H]4C=C[C@H]3C4)n2)ccc2c1CCC(=O)CC2")
"< 100 nM"
>>> result("CS(=O)(=O)N[C@@H]1CCCC[C@H]1Nc1nc(Nc2ccc3c(c2)CCC(NCC(F)(F)F)CC3)ncc1Cl (some centres unmarked)")
"< 100 nM"
>>> result("CNC(=O)C1C2C=CC(C2)C1Nc1nc(Nc2ccc3c(c2)CCC(N2CCOCC2)CC3)ncc1Cl (centres unmarked)")
"< 100 nM"
>>> result("C=CCN1CCNC(=O)c2cccc(Nc3ncc(Cl)c(Nc4ccccc4C(=O)NC)n3)c21")
"1000 to 10000 nM"
>>> result("COCC(COC)N1CCc2cc(Nc3ncc(Cl)c(Nc4ccc(N5CCOCC5)cc4OC)n3)c(OC)cc2CC1")
"< 100 nM"
>>> result("COCCN1CCSc2ccc(Nc3ncc(Cl)c(N[C@@H]4CCCC[C@H]4NS(C)(=O)=O)n3)cc2C1")
"< 100 nM"
>>> result("COc1ccc(Nc2nc(Nc3ccc4c(c3)CCC(O)CC4)ncc2Cl)c(-n2cccn2)c1 (centres unmarked)")
"< 100 nM"
>>> result("CNC(=O)c1ccccc1Nc1nc(Nc2ccc3c(c2)CN(CCOC)CCS3)ncc1Cl")
"< 100 nM"
>>> result("COCCN1CCc2ccc(Nc3ncc(Cl)c(Nc4ccccc4-c4ncccc4OC)n3)cc2CC1")
"< 100 nM"
>>> result("COCCN1CCc2cc(Nc3ncc(Cl)c(Nc4ccccc4-c4nccn4C)n3)c(OC)cc2CC1")
"< 100 nM"
>>> result("CC1(C)CCCOc2c(Nc3ncc(Cl)c(Nc4ccccc4-n4cccn4)n3)cccc21")
"100 to 1000 nM"
